pIC50: recorded values
# TESTED_TARGET: MAb 445-1
# ASSAY_EXPLANATION: MAb inhibition ELISA; free peptide inhibits 445-1 binding to coated hG34(16-34)-Gly 35-BSA
Where no end group is shown, it is not given here. [ ]: non-standard residue; d: D form. pGlu = O=C1CC[C@@H](C(=O)O)N1
Bear in mind: pIC50 is minus log10 of a mol/L concentration; give just that figure.

binder="[pGlu]GPWLEEEEEAYGWMDFG (ends and bridges not checked) [glycine-extended gastrin-17 (G17-Gly)]" observed=6.15

Consider now this further binder.
What pIC50 value was documented for this binder, CPPPPSSYGWMDFG [hG17(12-17)-Gly18 peptide …] ? 5.40
